details: 23 °C
ENDPOINT_LABEL: solubility (mM)
Numeric answer only, unit mM assumed.

Below, 2 compounds whose answers are already recorded.
| COMPOUND | UNITS_LABEL | DATA_VALUE |
| --- | --- | --- |
| NC(=S)NNC(N)=S | mM | 16 |
| CC(=O)C1(C)CO1 (stereo not drawn) | mM | 2400 |

We now examine a further compound.
Prompt line: Return reported solubility; argument: "O=c1[nH]c(=O)c2cc([N+](=O)[O-])cc([N+](=O)[O-])c2[nH]1"
Response line: 0.623

* * *

details: 30 °C
ENDPOINT_LABEL: solubility
Answer format reminder: number followed by unit.

| COMPOUND | ENDPOINT_LABEL | DATA_VALUE |
| --- | --- | --- |
| C[C@H](Nc1ccccc1Cl)C(=O)O (racemic) | solubility | 4.71 mM |
| CCc1ccccc1NC(C)=O | solubility | 25.7 mM |

Prompt line: Return reported solubility; argument: "CC(=O)c1cccs1"
Response line: 111 mM

Prompt line: Return reported solubility; argument: CCN(CC)C(C#N)c1ccccc1 (stereo unspecified)
Response line: 106 mM

Prompt line: Return reported solubility; argument: "CCOC(=O)CO[N+](=O)[O-]"
Response line: 19.4 mM

Prompt line: Return reported solubility; argument: "O=C(O)Cc1c[nH]c(=O)[nH]c1=O"
Response line: 23.5 mM

Prompt line: Return reported solubility; argument: "CCCOc1ccc(NC(C)=O)cc1"
Response line: 0.88 mM
